Let's go through some recorded Ki values for 5-hydroxytryptamine receptor 2A (Homo sapiens) together.
measuredEndpoint: Ki (nM)

# count of solved cases: 2
[
  {
    "compoundStructureString": "F[C@@H]1CCNC[C@H]1c1c(-c2ccccc2)[nH]c2ccc(Cl)cc12",
    "unitsSymbol": "nM",
    "obsValue": 10.2
  },
  {
    "compoundStructureString": "Fc1ccc2c([C@@H]3CNCC[C@H]3F)c[nH]c2c1",
    "unitsSymbol": "nM",
    "obsValue": 70
  }
]

[P] F[C@@H]1CCNC[C@H]1c1c(-c2ccccc2)[nH]c2cc(Cl)ccc12
[Q] F[C@@H]1CCNC[C@H]1c1c(-c2ccccc2)[nH]c2ccccc12
[Q] // select label with min value of measured Ki from [ P , Q ] Output the label that corresponds to your choice.
[A] Q
(Q: 0.43 nM, P: 2.3 nM)

----------
# protocol: Terminal half-life following iv dosing in dog
# Assay type: ADME, organism-based, Canis lupus familiaris
# settings: in vivo
measuredEndpoint: half-life (h)

[
  {
    "compoundStructureString": "F[C@@H]1CCNC[C@H]1c1c(-c2ccccc2)[nH]c2ccccc12",
    "half-life / h": 7.4
  },
  {
    "compoundStructureString": "c1ccc(CCN2CCC(c3c(-c4ccccc4)[nH]c4ccccc34)CC2)cc1",
    "half-life / h": 9.8
  }
]

----------
# assaySystem: D(2) dopamine receptor (Homo sapiens, UniProt P14416)
# Sequence (P14416 whole entry): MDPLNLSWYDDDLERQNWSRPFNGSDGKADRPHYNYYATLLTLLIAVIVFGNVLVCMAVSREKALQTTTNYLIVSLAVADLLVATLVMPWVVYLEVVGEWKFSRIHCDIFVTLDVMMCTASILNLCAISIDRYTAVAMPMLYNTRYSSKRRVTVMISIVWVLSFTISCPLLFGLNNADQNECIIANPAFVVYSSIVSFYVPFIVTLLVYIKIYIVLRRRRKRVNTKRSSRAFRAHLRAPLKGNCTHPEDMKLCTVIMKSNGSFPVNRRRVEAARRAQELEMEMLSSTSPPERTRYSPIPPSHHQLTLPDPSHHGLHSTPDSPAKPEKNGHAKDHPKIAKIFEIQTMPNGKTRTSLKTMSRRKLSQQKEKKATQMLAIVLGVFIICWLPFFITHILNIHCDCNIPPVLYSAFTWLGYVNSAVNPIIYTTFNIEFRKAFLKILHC
# protocol: Ability to displace [3H]spiperone binding to CHO cells stably expressing dopamine receptor D2
measuredEndpoint: Ki

[
  {
    "compound": "Fc1ccc2c([C@@H]3CNCC[C@H]3F)c(-c3cccc4ccccc34)[nH]c2c1",
    "Ki": "1400 nM"
  }
]

[Q] Requested read-out: Ki. Entry: `Fc1ccc2c([C@@H]3CNCC[C@H]3F)c(-c3cccnc3)[nH]c2c1`
[A] > 1600 nM

[Q] Field request: Ki | item: `c1ccc(-c2[nH]c3ccccc3c2C2CCNCC2)cc1`
[A] > 1600 nM

[Q] Item `F[C@@H]1CCNC[C@H]1c1c(-c2ccccc2)[nH]c2cc(Cl)ccc12` has what recorded Ki?
[A] > 1600 nM

[Q] Tell me the measured Ki of c1ccc(CCN2CCCC(c3c(-c4ccccc4)[nH]c4ccccc34)C2)cc1 (stereo unspecified) , please.
[A] 500 nM

[Q] # query: Ki of entry `O=C(Nc1ccccc1)c1[nH]c2cc(F)ccc2c1[C@@H]1CNCC[C@H]1F`
[A] > 1600 nM

----------
# assaySystem: 5-hydroxytryptamine receptor 2C (Homo sapiens, UniProt P28335)
# Sequence (P28335 whole entry): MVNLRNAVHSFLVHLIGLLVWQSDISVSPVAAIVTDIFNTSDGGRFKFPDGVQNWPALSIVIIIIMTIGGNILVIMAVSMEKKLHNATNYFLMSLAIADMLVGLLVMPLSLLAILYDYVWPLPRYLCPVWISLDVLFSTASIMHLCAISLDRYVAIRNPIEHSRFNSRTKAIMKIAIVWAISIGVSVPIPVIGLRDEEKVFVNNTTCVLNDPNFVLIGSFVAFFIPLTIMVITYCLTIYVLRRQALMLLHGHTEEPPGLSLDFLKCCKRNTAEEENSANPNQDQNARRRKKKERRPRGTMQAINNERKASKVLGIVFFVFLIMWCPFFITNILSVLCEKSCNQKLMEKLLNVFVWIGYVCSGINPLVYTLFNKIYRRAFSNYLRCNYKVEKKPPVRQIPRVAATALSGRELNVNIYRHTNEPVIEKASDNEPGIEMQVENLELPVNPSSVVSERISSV
measuredEndpoint: Ki (nM)

[
  {
    "molecule": "Fc1cccc2c([C@@H]3CNCC[C@H]3F)c(-c3ccccc3)[nH]c12",
    "assaySystem": "5-hydroxytryptamine receptor 2C (Homo sapiens, UniProt P28335)",
    "Ki (nM)": 132
  }
]

[a] Fc1ccc2c([C@@H]3CNCC[C@H]3F)c(C3CCCCC3)[nH]c2c1
[b] F[C@@H]1CCNC[C@H]1c1c(-c2ccccc2)[nH]c2ccccc12
[c] Fc1ccc2c([C@@H]3CNCC[C@H]3F)c(-c3cccnc3)[nH]c2c1
[d] CN1CCCC(c2c(-c3ccccc3)[nH]c3ccccc23)C1 (stereo not drawn)
[Q] Form: Sort by [Ki] Order [ ascending ] Thanks in advance for listing the labels in the requested order.
[A] a, b, c, d

----------
# protocol: Area under the concentration-time curve for 0-4 hr after 2 mg/kg po in rat
# Assay type: ADME, organism-based
# Design: time < 4 hr, dose 2 mg/kg, route oral
# settings: in vivo
measuredEndpoint: AUC(0-t) at 4 h (ng·h/mL)

Observe how each entry below is paired with its result.
[
  {
    "compound": "c1ccc(-c2[nH]c3ccccc3c2C2CCCNC2)cc1 (stereo not given)",
    "obsValue": 47
  },
  {
    "compound": "O=C1NCCN1CCN1CCCC(c2c(-c3ccccc3)[nH]c3ccccc23)C1 (stereo not given)",
    "obsValue": 217
  },
  {
    "compound": "c1ccc(CCN2[C@@H]3CC[C@H]2CC(c2c(-c4ccccc4)[nH]c4ccccc24)C3)cc1 (stereo not given in full)",
    "obsValue": 126
  }
]

[a] O=C(Nc1ccccc1)c1[nH]c2cc(F)ccc2c1[C@@H]1CNCC[C@H]1F
[b] Fc1ccc(-c2[nH]c3cc(F)ccc3c2[C@@H]2CNCC[C@H]2F)cc1
[Q] Could you please tell me which of these two has the higher AUC(0-t) at 4 h: a or b ? API: response body contains the label of the selected item.
[A] b

----------
# assaySystem: 5-hydroxytryptamine receptor 2A (Homo sapiens)
# Sequence (P28223 whole entry): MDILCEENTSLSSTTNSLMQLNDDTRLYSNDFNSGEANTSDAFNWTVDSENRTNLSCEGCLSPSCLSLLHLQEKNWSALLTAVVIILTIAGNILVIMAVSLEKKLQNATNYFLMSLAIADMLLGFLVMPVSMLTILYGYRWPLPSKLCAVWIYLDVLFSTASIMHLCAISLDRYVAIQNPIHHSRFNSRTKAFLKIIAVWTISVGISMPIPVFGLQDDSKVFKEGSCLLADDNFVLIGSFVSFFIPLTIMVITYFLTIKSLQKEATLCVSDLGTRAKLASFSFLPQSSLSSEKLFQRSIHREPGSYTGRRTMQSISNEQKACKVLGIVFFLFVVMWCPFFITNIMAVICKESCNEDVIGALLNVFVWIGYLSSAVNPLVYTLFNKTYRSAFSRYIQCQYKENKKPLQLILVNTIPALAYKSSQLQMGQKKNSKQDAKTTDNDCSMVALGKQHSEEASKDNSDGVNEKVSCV
measuredEndpoint: Ki (nM)

[
  {
    "compound": "O=C1NCCN1CCN1CCCC(c2c(-c3ccccc3)[nH]c3ccccc23)C1 (stereo not given)",
    "obsValue": 26
  },
  {
    "compound": "COC(=O)c1[nH]c2cc(F)ccc2c1[C@@H]1CNCC[C@H]1F",
    "obsValue": 10.4
  },
  {
    "compound": "c1ccc(-c2[nH]c3ccccc3c2C2CCCNC2)cc1 (stereo not given)",
    "obsValue": 0.99
  },
  {
    "compound": "F[C@H]1CCNC[C@@H]1c1c(-c2ccccc2)[nH]c2ccccc12",
    "obsValue": 220
  }
]

[1] Fc1ccc(-c2[nH]c3cc(F)ccc3c2[C@@H]2CNCC[C@H]2F)cc1
[2] Fc1ccc2c([C@@H]3CNCC[C@H]3F)c(-c3ccoc3)[nH]c2c1
[Q] Response body: label of entry with the larger Ki; valid values 1 , 2 . Return value: the label identifying the chosen record.
[A] 2
(2: 0.54 nM, 1: 0.12 nM)

[a] Fc1ccc2c([C@@H]3CNCC[C@H]3F)c(-c3cccc4ccccc34)[nH]c2c1
[b] O=C(Nc1ccccc1)c1[nH]c2cc(F)ccc2c1[C@@H]1CNCC[C@H]1F
[Q] Pick one: a or b . Which has the bigger Ki number? Write down the label of the entry you select.
[A] a
(a: 0.34 nM, b: 0.09 nM)

----------
# assaySystem: D(2) dopamine receptor (Homo sapiens)
# protocol: Ability to displace [3H]spiperone binding to CHO cells stably expressing dopamine receptor D2
pKi: −log10 of the molar value.
measuredEndpoint: pKi

Solved cases below.
[
  {
    "molecule": "CN1CCCCC1c1c(-c2ccccc2)[nH]c2ccccc12 (stereo not drawn)",
    "obsValue": "< 5.77"
  },
  {
    "molecule": "O=C1NCCN1CCN1CCCC(c2c(-c3ccccc3)[nH]c3ccccc23)C1 (stereo not drawn)",
    "obsValue": "< 5.89"
  },
  {
    "molecule": "Fc1ccc(-c2[nH]c3cc(F)ccc3c2C2CCCNC2)cc1 (stereo not drawn)",
    "obsValue": 7.55
  },
  {
    "molecule": "CN1CCN(C)C(c2c(-c3ccccc3)[nH]c3ccccc23)C1 (stereo not drawn)",
    "obsValue": "< 5.80"
  },
  {
    "molecule": "Fc1ccc2c([C@@H]3CNCC[C@H]3F)c(-c3ccsc3)[nH]c2c1",
    "obsValue": 5.80
  }
]

[Q] # input molecule: c1ccc(CCN2[C@@H]3CC[C@H]2CC(c2c(-c4ccccc4)[nH]c4ccccc24)C3)cc1 (stereo partly drawn) ; wanted: its pKi
[A] 6.00

[Q] Report pKi for c1ccc(-c2[nH]c3ccccc3c2C2CCCNC2)cc1 (stereo not drawn) please.
[A] < 5.89

[Q] Item under review: `COC(=O)c1[nH]c2cc(F)ccc2c1[C@@H]1CNCC[C@H]1F` . Reported pKi?
[A] < 5.80

----------
# Ki measurements, system: Voltage-gated inwardly rectifying potassium channel KCNH2 (Homo sapiens, UniProt Q12809)
# Sequence (Q12809 whole entry): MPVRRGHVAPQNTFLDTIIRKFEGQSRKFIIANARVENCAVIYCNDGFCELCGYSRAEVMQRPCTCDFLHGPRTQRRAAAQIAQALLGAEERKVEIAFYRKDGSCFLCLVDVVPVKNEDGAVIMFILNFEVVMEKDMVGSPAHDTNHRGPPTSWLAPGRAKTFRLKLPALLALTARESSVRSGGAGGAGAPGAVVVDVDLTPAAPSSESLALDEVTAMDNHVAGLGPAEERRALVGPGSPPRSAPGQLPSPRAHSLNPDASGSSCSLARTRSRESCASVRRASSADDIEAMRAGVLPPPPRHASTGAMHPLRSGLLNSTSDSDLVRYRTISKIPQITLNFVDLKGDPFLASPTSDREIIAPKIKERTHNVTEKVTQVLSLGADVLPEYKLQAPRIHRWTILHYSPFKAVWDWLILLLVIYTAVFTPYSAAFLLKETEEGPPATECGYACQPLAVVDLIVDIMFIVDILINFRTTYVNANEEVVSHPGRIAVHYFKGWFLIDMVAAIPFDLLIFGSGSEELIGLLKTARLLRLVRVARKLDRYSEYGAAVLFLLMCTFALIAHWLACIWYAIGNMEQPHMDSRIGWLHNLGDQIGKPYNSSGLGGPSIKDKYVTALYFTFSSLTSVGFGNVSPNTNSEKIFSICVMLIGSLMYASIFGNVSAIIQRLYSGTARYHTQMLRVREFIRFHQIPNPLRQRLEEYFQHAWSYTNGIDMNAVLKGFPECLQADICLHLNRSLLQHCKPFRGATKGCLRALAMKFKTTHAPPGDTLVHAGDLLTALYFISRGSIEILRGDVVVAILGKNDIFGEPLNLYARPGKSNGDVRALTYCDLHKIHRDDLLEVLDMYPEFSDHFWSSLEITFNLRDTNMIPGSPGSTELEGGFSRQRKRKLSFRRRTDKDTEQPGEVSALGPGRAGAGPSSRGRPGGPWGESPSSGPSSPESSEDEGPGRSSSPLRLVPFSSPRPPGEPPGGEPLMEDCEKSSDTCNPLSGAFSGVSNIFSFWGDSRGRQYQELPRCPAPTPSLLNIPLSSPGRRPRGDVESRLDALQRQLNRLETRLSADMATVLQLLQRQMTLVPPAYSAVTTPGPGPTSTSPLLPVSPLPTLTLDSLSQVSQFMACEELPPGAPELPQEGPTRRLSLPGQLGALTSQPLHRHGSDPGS
Use nM as the unit, but write only the number.

Below, each entry is followed by its recorded Ki result.
[
  {
    "molecule": "CN1CCCC(c2c(-c3ccccc3)[nH]c3ccccc23)C1 (centres undefined)",
    "unitsSymbol": "nM",
    "Ki": 9600
  },
  {
    "molecule": "Fc1ccc(-c2[nH]c3cc(F)ccc3c2[C@@H]2CNCC[C@H]2F)cc1",
    "unitsSymbol": "nM",
    "Ki": 1600
  },
  {
    "molecule": "Fc1ccc2c([C@@H]3CNCC[C@H]3F)c(-c3ccc4ccccc4c3)[nH]c2c1",
    "unitsSymbol": "nM",
    "Ki": 500
  },
  {
    "molecule": "c1ccc(CCN2[C@@H]3CC[C@H]2CC(c2c(-c4ccccc4)[nH]c4ccccc24)C3)cc1 (some centres undefined)",
    "unitsSymbol": "nM",
    "Ki": 18
  },
  {
    "molecule": "Fc1ccc2c([C@@H]3CNCC[C@H]3F)c(-c3cccc4ccccc34)[nH]c2c1",
    "unitsSymbol": "nM",
    "Ki": 110
  },
  {
    "molecule": "Fc1ccc2c([C@@H]3CNCC[C@H]3F)c(-c3ccsc3)[nH]c2c1",
    "unitsSymbol": "nM",
    "Ki": 1500
  },
  {
    "molecule": "Fc1ccc(-c2[nH]c3cc(F)ccc3c2C2CCCNC2)cc1 (centres undefined)",
    "unitsSymbol": "nM",
    "Ki": 1300
  }
]

Turning now to a further molecule:
[Q] Entry `c1ccc(-c2[nH]c3ccccc3c2C2CCNCC2)cc1` has what Ki?
[A] 5700
